Entries annotated with measured pIC50
assay: Inhibition of IL-5 in mouse Y16 cells after 48 hrs by WST1 assay
pIC50: −log10 of the molar value.
attribute.measured: pIC50

# smi, attribute.measured, result.value
rows = [
    ("CC(C)N(CCO)Cc1coc2cccc(OCC3CCCCC3)c2c1=O", "pIC50", 4.99),
    ("O=c1c(CN(CCO)Cc2ccccc2)coc2cccc(OCC3CCCCC3)c12", "pIC50", 4.79),
    ("O=c1c(CN(CCO)C2CCCCC2)coc2cccc(OCC3CCCCC3)c12", "pIC50", 5.05),
]

---

The compounds listed here are annotated with their pIC50.
experiment: Inhibition of IL-5 in mouse Y16 cells after 48 hrs by WST1 assay
pIC50: −log10 of the molar value.
attribute.measured: pIC50

# smi, result.value
rows = [
    ("COc1ccc(CN(CCO)Cc2coc3cccc(OCC4CCCCC4)c3c2=O)cc1", 5.05),
    ("O=c1c(CN(CCO)Cc2ccc(O)cc2)coc2cccc(OCC3CCCCC3)c12", 5.04),
    ("O=c1c(CN(CCO)Cc2ccc(Cl)cc2)coc2cccc(OCC3CCCCC3)c12", 4.99),
    ("O=c1c(CN(CCO)CC2CCCCC2)coc2cccc(OCC3CCCCC3)c12", 4.91),
    ("O=c1c(CN(CCO)Cc2ccncc2)coc2cccc(OCC3CCCCC3)c12", 4.85),
    ("Cc1ccc(CN(CCO)Cc2coc3cccc(OCC4CCCCC4)c3c2=O)cc1", 5.03),
    ("O=c1c(CN(CCO)c2ccccc2)coc2cccc(OCC3CCCCC3)c12", 4.84),
    ("CCCCN(CCO)Cc1coc2cccc(OCC3CCCCC3)c2c1=O", 5.04),
    ("CCN(CCO)Cc1coc2cccc(OCC3CCCCC3)c2c1=O", 4.71),
    ("CN(CCO)Cc1coc2cccc(OCC3CCCCC3)c2c1=O", 4.52),
    ("CCCN(CCO)Cc1coc2cccc(OCC3CCCCC3)c2c1=O", 4.81),
]
